target_desc: full-length RORγt in Jurkat cells (Homo sapiens, UniProt P51449)
Construct: transcriptional activity of the full-length RORγt in Jurkat cells; host or cells: Jurkat cells (ATCC TIB-152)
Sequence (P51449 1-497 isoform P51449-2): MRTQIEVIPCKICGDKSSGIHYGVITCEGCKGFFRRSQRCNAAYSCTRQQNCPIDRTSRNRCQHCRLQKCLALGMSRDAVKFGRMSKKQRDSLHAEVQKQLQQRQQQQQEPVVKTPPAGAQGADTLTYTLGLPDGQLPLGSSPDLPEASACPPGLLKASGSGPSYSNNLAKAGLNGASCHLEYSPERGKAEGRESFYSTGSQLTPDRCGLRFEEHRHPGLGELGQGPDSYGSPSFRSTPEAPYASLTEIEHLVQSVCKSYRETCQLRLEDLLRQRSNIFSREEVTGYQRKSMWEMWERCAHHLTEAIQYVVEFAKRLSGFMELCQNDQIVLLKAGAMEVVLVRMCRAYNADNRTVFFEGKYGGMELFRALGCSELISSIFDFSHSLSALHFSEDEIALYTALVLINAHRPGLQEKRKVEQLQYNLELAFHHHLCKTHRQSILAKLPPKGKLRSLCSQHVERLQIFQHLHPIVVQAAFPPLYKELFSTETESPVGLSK
protocol_text: RORγt 5×RORE Assay in Jurkat Cells (Assay 2)
Format: cell-based
experimental_context: 5×RORE luciferase reporter, head without unit (Tables 15, 17), read-out: Avg ROR γt/5x IC50
Protocol: [formula] RORγt 5×RORE Assay in Jurkat Cells (Assay 2) Compounds described herein were tested for RORγ inverse agonist activity in a cell-based, transcriptional activity assay. Secreted Nanoluc″ luciferase was used as a reporter for transcriptional activity of the full-length RORγt in Jurkat cells (ATCC, Cat. #TIB-152). […] Luciferase activity in the conditioned supernatants was determined with NanoGlo® assay reagents (Promega, Cat. #N1130).
measured_attribute: IC50

molecule="CCS(=O)(=O)c1ccc(CNC(=O)c2cnc3c(c2)CCN(C[C@H]2CC[C@H](C(F)(F)F)CC2)[C@H]3C(C)C)cc1 (single isomer, unassigned) [Hy2B-9.1]" measured_attribute=IC50 result="100 to 1000 nM"
molecule="CCS(=O)(=O)c1ccc(CNC(=O)c2cnc3c(c2)CCN(Cc2ccc(F)cc2)C3C(C)C)cc1 (single isomer, unassigned) [Hy2B-6.1]" measured_attribute=IC50 result="> 1000 nM"
molecule="CCS(=O)(=O)c1ccc([C@H](CO)NC(=O)c2cc3ccnc(OCc4ccc(C(F)(F)F)cc4)c3n2C)cc1 [Hy4-4]" measured_attribute=IC50 result="100 to 1000 nM"
molecule="CCS(=O)(=O)c1ccc(CNC(=O)c2cnc3c(c2)CCN(C[C@H]2CC[C@H](C(F)(F)F)CC2)[C@H]3C(C)C)nc1 (single isomer, unassigned) [Hy2B-10.1]" measured_attribute=IC50 result="100 to 1000 nM"

// next entry
Lab book: IC50 of CCS(=O)(=O)c1ccc(CNC(=O)c2cnc3c(c2)CCN(Cc2ccc(C#N)cc2)C3C(C)C)cc1 (single isomer, unassigned) [Hy2B-7.1] noted as 100 to 1000 nM
